- MEASUREMENT TARGET: HLA-B*3501 (human)
- PROCEDURE SUMMARY: competition with 125I-labelled standard peptide for purified HLA, gel filtration
binding affinity ratio (IC50 of standard peptide / IC50 of test peptide): recorded values

Solved cases (3 shown):
GPKATLQDIV (modifications not checked) [HPV18 E7 peptide … (position 3, 10 amino acids)]
0.0001
EPQRHTMLCM (modifications not checked) [HPV18 E7 peptide … (position 55, 10 amino acids)]
0.0002
DPTRRPYKL (modifications not checked) [HPV18 E6 peptide … (position 6, 9 amino acids)]
0.0001

Now for the binder whose binding affinity ratio (IC50 of standard peptide / IC50 of test peptide) we want.
binding affinity ratio (IC50 of standard peptide / IC50 of test peptide) reported for this binder GPKATLQDI (modifications not checked) [HPV18 E7 peptide … (position 3, 9 amino acids)] : 0.0001
